# experimentNotes: BSK_LPS_SRB: Viability Assessment in the BioMAP Diversity Plus: LPS Assay (AID 2283079);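 also: total protein by sulforhodamine B absorbance as a cytotoxicity measure; measured one day after compound addition; fitted in both directions against DMSO so loss or gain of signal counts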
# conditionParameters: primary human HUVEC with PBMC
Active and inactive are the calls of the source. The calls were made as follows: active = hit-call score of the fitted dose curve at least 0.9, where 1 is the maximum; inactive = score below 0.9.
assayReadout: AC50

Look over these answered cases.
{"compound": "CC1(C)CC(O)CC(C)(C)N1[O]", "assayReadout": "AC50", "valueReported": "inactive"}
{"compound": "CC(C)[N+](C)(CCOC(=O)C1c2ccccc2Oc2ccccc21)C(C)C", "assayReadout": "AC50", "valueReported": "3.97 µM (active)"}
{"compound": "Nc1nc(N)nc(-c2ccccc2)n1", "assayReadout": "AC50", "valueReported": "inactive"}
{"compound": "C=CC(=O)OCCCCCCCC(C)C", "assayReadout": "AC50", "valueReported": "inactive"}
{"compound": "CC/C=C\\C/C=C\\C/C=C\\CCCCCCCC(=O)OC", "assayReadout": "AC50", "valueReported": "27.8 µM (active)"}
{"compound": "Nc1ccc(C(=O)O)cc1", "assayReadout": "AC50", "valueReported": "inactive"}
{"compound": "O=C(Cl)c1c(Cl)c(Cl)c(C(=O)Cl)c(Cl)c1Cl", "assayReadout": "AC50", "valueReported": "inactive"}
{"compound": "Nc1cccc(N)n1", "assayReadout": "AC50", "valueReported": "inactive"}
{"compound": "CC=C(C)C(C)=O", "assayReadout": "AC50", "valueReported": "inactive"}
{"compound": "Cc1ccc([N+](=O)[O-])cc1N", "assayReadout": "AC50", "valueReported": "inactive"}

Entry CC(CCC(=O)O)(c1ccc(O)cc1)c1ccc(O)cc1 : reported AC50 = ?
inactive

Quick check: AC50 of CCC1(C)C(=O)N(Cl)C(=O)N1Cl (stereo unspecified) ?
inactive

Value lookup for AC50; key = C=CC(=O)OCC(C)OCC(C)OCC(C)OC(=O)C=C (stereo unspecified)
22.9 µM (active)

Tell me the measured AC50 of CCCCCCCCCCCC(C)=O , please.
inactive

Return reported AC50; argument: CCOC(=O)C1=NOC(c2ccccc2)(c2ccccc2)C1
inactive

Recorded AC50 of C=CCCCCCCCCC=O , please.
inactive

I have this compound here, COC(OC)(C(=O)c1ccccc1)c1ccccc1 , and I need its recorded AC50.
inactive

Requested field: AC50. Item: CC=C(C)C=CC=C(C)C
inactive

I am curious: what AC50 value has been reported for CCNc1nc(NC(C)(C)C)nc(OC)n1 ?
inactive

FYI, the data here is from PubChem BioAssay (EPA / NIEHS).
